test system: MYLK4; settings: concentration: 1 μM, replicates: in singlicate; n = 1;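 also: KINOMEscan kinase panel screen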
// reported %Inh for each item listed
property_name: %Inh

>>> print(df.to_string())
                                   compound  property_name  result
0  O=C(Nc1n[nH]c2cc(-c3cccs3)ccc12)C1CC1 [SB-731284]           %Inh     24%
1  CC(C)(C)c1ccc(C(=O)Nc2cn3cc(-n4ccnc4)ccc3n2)cc1           %Inh      2%
2  O=C(Nc1n[nH]c2nc(-c3cccc(O)c3)ccc12)C1CC1 [SB-711805]           %Inh     13%
3  COc1cccc(-c2nc(-c3ccccc3)[nH]c2-c2ccncc2)c1 [SB-610250]           %Inh      0%
4  CSc1ccc(NC2=C(c3ccc(Cl)cc3)C(=O)NC2=O)cc1 [SB-317658]           %Inh     24%

====

tested on: MEK2; construct: gene MAP2K2; conditions: concentration: 1 μM, replicates: in singlicate; n = 1
property_name: %Inh

                            chemical_smiles  result
0  Cn1cc(-c2cnc(N)c3c(-c4ccc5c(c4)CCN5C(=O)Cc4ccccc4)csc23)cn1     23%
1  CN(C)CCOc1ccc(-c2cc(-c3ccc(Cl)c(O)c3)c(-c3ccncc3)[nH]2)cc1.Cl.Cl     35%
2  Cc1ccccc1CC(=O)N1CCc2cc(-c3cn(C)c4ncnc(N)c34)ccc21      0%
3  CCOc1nccc(-c2c(-c3ccc(F)cc3)ncn2C2CCNCC2)n1     31%
4  COc1cccc2c(-c3ccncc3)c(-c3ccc(F)cc3)nn12      1%
5  Cl.O=C(Nc1ccc(Oc2ccc3[nH]c(NC(=O)c4ccco4)nc3c2)cc1)Nc1cc(C(F)(F)F)ccc1F      0%
6  Cc1cc(-c2c(-c3ccc(F)cc3)ncn2CCCN2CCOCC2)nc(N)n1     47%
7  COC(=O)Nc1nc2ccc(Oc3ccc(NC(=O)Nc4cc(C(F)(F)F)ccc4F)cc3)cc2[nH]1.Cl      0%

====

tested on: p38-beta; construct: gene MAPK11; conditions: concentration: 1 μM, replicates: in singlicate; n = 1
Measured %Inh accompanies every entry in the list below.
property_name: %Inh

>>> print(df.to_string())
                                   compound  property_name  result
0  CC(C)NCC(Cc1ccccc1)NC(=O)c1cc(Br)c(-c2ccnc3[nH]ccc23)s1.Cl.Cl (stereo not drawn) [GSK1383281]           %Inh      0%
1  Cl.Cl.NC(CNC(=O)c1cc(Br)c(-c2ccnc3[nH]ccc23)s1)c1ccccc1 (stereo not drawn) [GSK1322949]           %Inh      0%
2  CC(=O)Nc1cn2nc(Oc3cccc(NC(=O)c4cccc(C(F)(F)F)c4)c3)ccc2n1           %Inh     28%
3  Cn1cc(-c2cnc(N)c3c(-c4ccc5c(c4)CCN5C(=O)Cc4ccccc4)csc23)cn1 [GSK2593074]           %Inh      1%
4   CCn1cnc2c(NCc3ccccc3)ncnc21 [SKF-96418]           %Inh      0%
5  COc1cccc(NC(=O)NCCNc2ccnc(Nc3ccc(F)cc3)n2)c1 [GSK1379879]           %Inh      0%
6  COC(=O)Nc1nc2cc(Oc3ccc(NC(=O)Nc4cccc(SC)c4)cc3)ccc2[nH]1.Cl [GW697999]           %Inh      0%
7  Cc1cccc(Nc2nc(NCCN)ncc2C(N)=O)c1 [GSK1292139]           %Inh      0%
8  COc1cc(Nc2ccnc3cc(-c4ccncc4)ccc23)cc(OC)c1OC.Cl [GW494610]           %Inh     66%

// provenance: paper PMC5540273
